- testedOn: MAP kinase-activated protein kinase 5 (Homo sapiens)
- conditionContext: at 10 µM
Answer rule not met if residual activity is under 90%, and rule met if it is 90% or more.

>  <compound>
O=C1Nc2ccc(Br)cc2/C1=C\c1cc2c([nH]1)CCCC2

>  <assignedLabel>
rule met

$$$$
>  <compound>
O=Nc1c(-c2c(O)[nH]c3ccccc23)[nH]c2ccccc12

>  <assignedLabel>
rule not met

$$$$
>  <compound>
Cc1cc2ncc(-c3ccccc3)nc2cc1C

>  <assignedLabel>
rule not met

$$$$
>  <compound>
COc1cc2ncc(-c3ccccc3)nc2cc1OC

>  <assignedLabel>
rule not met

$$$$
>  <compound>
COc1cc2ncnc(Nc3ccc(Oc4ccccc4)cc3)c2cc1OC

>  <assignedLabel>
rule met

$$$$
>  <compound>
O=[N+]([O-])c1ccc(-c2nc(-c3ccc(F)cc3)c(-c3ccncc3)[nH]2)cc1

>  <assignedLabel>
rule met

$$$$
>  <compound>
O=C(Nc1cccc(Nc2cc(Nc3cccc(C(F)(F)F)c3)ncn2)c1)C1CC1

>  <assignedLabel>
rule not met

$$$$
>  <compound>
O=C1NC(=O)c2c1c1c3ccccc3[nH]c1c1[nH]c3cc(Br)ccc3c21

>  <assignedLabel>
rule met

$$$$
>  <compound>
CCOc1cc2ncnc(Nc3cccc(Br)c3)c2cc1OCC

>  <assignedLabel>
rule not met

$$$$
>  <compound>
C[C@@H](N)[C@H]1CC[C@H](C(=O)Nc2ccncc2)CC1

>  <assignedLabel>
rule met

$$$$
>  <compound>
CC(=O)c1ccc(N2CCOCC2)cc1O

>  <assignedLabel>
rule met

$$$$
>  <compound>
CN(C)CCCn1cc(C2=C(c3c[nH]c4ccccc34)C(=O)NC2=O)c2ccccc21

>  <assignedLabel>
rule met

$$$$
>  <compound>
CO[C@H]1[C@@H](OC)C[C@H](C)[C@@H](OC)C2=CC(=O)C=C(NC(=O)/C(C)=C/C=C/[C@H](OC)[C@@H](OC(N)=O)/C(C)=C/[C@@H]1C)C2=O

>  <assignedLabel>
rule met

$$$$
>  <compound>
Cn1cnc2cc3c(Nc4cccc(Br)c4)ncnc3cc21

>  <assignedLabel>
rule not met

$$$$
>  <compound>
O=C1NC(=O)/C(=C/c2ccc3c(c2)OC(F)(F)O3)S1

>  <assignedLabel>
rule not met

$$$$
>  <compound>
Cn1cc(/C=C2\C(=O)Nc3ccc(S(N)(=O)=O)cc32)c2ccccc21

>  <assignedLabel>
rule not met

$$$$
>  <compound>
COc1cc2ncnc(Nc3ccc(O)c(Br)c3)c2cc1OC

>  <assignedLabel>
rule not met

$$$$
>  <compound>
O=C1c2ccccc2-[n+]2ccc3c([nH]c4ccccc43)c21

>  <assignedLabel>
rule met

$$$$
>  <compound>
Oc1c2ccccc2c2c3c(cccc13)N=N2

>  <assignedLabel>
rule not met

$$$$
>  <compound>
NC(=O)c1ccc2[nH]c(-c3ccc(Oc4ccc(Cl)cc4)cc3)nc2c1

>  <assignedLabel>
rule not met

$$$$
>  <compound>
O=c1c2ccccc2[nH]c(=S)n1CCN1CCC(=C(c2ccc(F)cc2)c2ccc(F)cc2)CC1

>  <assignedLabel>
rule not met

$$$$
>  <compound>
CC#CC(=O)Nc1cc2c(Nc3ccc(F)c(Cl)c3)ncnc2cn1

>  <assignedLabel>
rule not met

$$$$
>  <compound>
CO[C@@H]1[C@H](N(C)C(=O)c2ccccc2)C[C@H]2O[C@]1(C)n1c3ccccc3c3c4c(c5c6ccccc6n2c5c31)C(=O)NC4

>  <assignedLabel>
rule not met

$$$$
>  <compound>
COc1cc2ncnc(Nc3ccc(NC(=O)c4ccccc4)cc3)c2cc1OC

>  <assignedLabel>
rule not met

$$$$
>  <compound>
CO[C@H]1C[C@@H]2CC[C@@H](C)[C@@](O)(O2)C(=O)C(=O)N2CCCC[C@H]2C(=O)O[C@H]([C@H](C)C[C@@H]2CC[C@@H](O)[C@H](OC)C2)CC(=O)[C@H](C)/C=C(\C)[C@@H](O)[C@@H](OC)C(=O)[C@H](C)C[C@H](C)/C=C/C=C/C=C/1C

>  <assignedLabel>
rule not met

$$$$
>  <compound>
COc1cc2ncnc(N3CCN(C(=O)Nc4ccc(Oc5ccccc5)cc4)CC3)c2cc1OC

>  <assignedLabel>
rule not met

$$$$
>  <compound>
O=C1NC(=O)/C(=C\c2ccc3nccnc3c2)S1

>  <assignedLabel>
rule met

$$$$
>  <compound>
CNc1cc2c(Nc3cccc(Br)c3)ncnc2cn1

>  <assignedLabel>
rule met

$$$$
>  <compound>
O=C1Nc2ccccc2/C1=C1/Nc2ccccc2/C1=N\OCCC(O)CO (stereo not given)

>  <assignedLabel>
rule not met

$$$$
>  <compound>
Cn1nc2c3c(cccc31)C(=O)c1ccccc1-2

>  <assignedLabel>
rule not met

$$$$
>  <compound>
N#Cc1cnc2cnc(NCc3cccnc3)cc2c1Nc1ccc(F)c(Cl)c1

>  <assignedLabel>
rule met

$$$$

----------
- testedOn: cAMP-dependent protein kinase catalytic subunit alpha (Homo sapiens) (UniProt P17612)
- conditionContext: at 1 µM
Below is a list of entries, each paired with its recorded residual activity value.
readoutLabel: residual activity (%)

>  <smiles>
O=C1NC(=O)/C(=C\c2ccc3nccnc3c2)S1

>  <numericReadout>
71

$$$$
>  <smiles>
O=C1c2ccccc2-[n+]2ccc3c([nH]c4ccccc43)c21

>  <numericReadout>
94

$$$$
>  <smiles>
O=C(Nc1cccc(Nc2nccc(Nc3cccc(C(F)(F)F)c3)n2)c1)C1CC1

>  <numericReadout>
75

$$$$
>  <smiles>
C[C@@H](N)[C@H]1CC[C@H](C(=O)Nc2ccncc2)CC1

>  <numericReadout>
96

$$$$
>  <smiles>
Ic1cccc(CSc2nnc(-c3ccncc3)o2)c1

>  <numericReadout>
99

$$$$
>  <smiles>
CCN(CC)C(=O)c1ccc(Nc2nc(OCC3CCCCC3)c3nc[nH]c3n2)cc1

>  <numericReadout>
80

$$$$
>  <smiles>
O=c1c2ccccc2[nH]c(=S)n1CCN1CCC(=C(c2ccc(F)cc2)c2ccc(F)cc2)CC1

>  <numericReadout>
92

$$$$
>  <smiles>
O=c1cc(-c2cccc3c2Sc2ccccc2S3)oc(N2CCOCC2)c1

>  <numericReadout>
102

$$$$
>  <smiles>
CC#CC(=O)Nc1cc2c(Nc3ccc(F)c(Cl)c3)ncnc2cn1

>  <numericReadout>
99

$$$$

----------
Reported residual activity values for the following compounds.
- testedOn: Ephrin type-A receptor 5 (Homo sapiens) (UniProt P54756)
- Sequence (P54756 whole entry): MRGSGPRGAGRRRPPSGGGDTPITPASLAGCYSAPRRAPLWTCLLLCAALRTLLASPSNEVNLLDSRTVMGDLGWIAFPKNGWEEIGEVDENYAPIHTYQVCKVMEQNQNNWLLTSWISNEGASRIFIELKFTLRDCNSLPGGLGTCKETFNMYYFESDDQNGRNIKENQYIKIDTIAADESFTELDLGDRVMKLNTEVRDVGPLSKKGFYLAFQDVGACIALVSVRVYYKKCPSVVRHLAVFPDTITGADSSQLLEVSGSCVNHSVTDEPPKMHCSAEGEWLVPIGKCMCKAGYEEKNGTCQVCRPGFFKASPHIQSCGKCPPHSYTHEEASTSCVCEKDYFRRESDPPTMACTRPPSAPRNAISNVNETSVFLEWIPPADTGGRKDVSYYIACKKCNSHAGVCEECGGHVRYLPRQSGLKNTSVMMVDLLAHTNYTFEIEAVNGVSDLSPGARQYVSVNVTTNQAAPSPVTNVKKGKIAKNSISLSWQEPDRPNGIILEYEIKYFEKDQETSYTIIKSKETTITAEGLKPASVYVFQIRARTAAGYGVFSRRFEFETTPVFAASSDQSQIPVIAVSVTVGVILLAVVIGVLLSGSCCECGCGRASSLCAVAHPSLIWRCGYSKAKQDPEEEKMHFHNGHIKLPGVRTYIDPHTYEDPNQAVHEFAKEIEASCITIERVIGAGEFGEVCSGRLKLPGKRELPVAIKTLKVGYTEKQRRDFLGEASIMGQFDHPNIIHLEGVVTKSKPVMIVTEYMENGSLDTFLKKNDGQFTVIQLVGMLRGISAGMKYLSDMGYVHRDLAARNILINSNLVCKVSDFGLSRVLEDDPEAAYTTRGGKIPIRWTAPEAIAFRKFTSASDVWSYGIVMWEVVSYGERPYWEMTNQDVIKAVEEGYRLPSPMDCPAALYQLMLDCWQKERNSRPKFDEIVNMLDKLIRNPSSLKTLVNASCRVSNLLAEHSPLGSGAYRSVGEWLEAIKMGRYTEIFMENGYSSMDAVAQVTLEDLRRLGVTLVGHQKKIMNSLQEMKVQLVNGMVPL
- conditionContext: at 1 µM
readoutLabel: residual activity (%)

>  <smiles>
O=[N+]([O-])c1ccc(-c2nc(-c3ccc(F)cc3)c(-c3ccncc3)[nH]2)cc1

>  <testedOn>
Ephrin type-A receptor 5 (Homo sapiens) (UniProt P54756)

>  <readoutLabel>
residual activity

>  <numericReadout>
100

$$$$
>  <smiles>
CCC(=O)Nc1ccc2ncnc(Nc3cccc(Br)c3)c2c1

>  <testedOn>
Ephrin type-A receptor 5 (Homo sapiens) (UniProt P54756)

>  <readoutLabel>
residual activity

>  <numericReadout>
101

$$$$
>  <smiles>
Ic1cccc(CSc2nnc(-c3ccncc3)o2)c1

>  <testedOn>
Ephrin type-A receptor 5 (Homo sapiens) (UniProt P54756)

>  <readoutLabel>
residual activity

>  <numericReadout>
106

$$$$
>  <smiles>
COc1cccc(-c2cc(=O)c3ccccc3o2)c1N

>  <testedOn>
Ephrin type-A receptor 5 (Homo sapiens) (UniProt P54756)

>  <readoutLabel>
residual activity

>  <numericReadout>
118

$$$$
>  <smiles>
C[C@@H](N)[C@H]1CC[C@H](C(=O)Nc2ccncc2)CC1

>  <testedOn>
Ephrin type-A receptor 5 (Homo sapiens) (UniProt P54756)

>  <readoutLabel>
residual activity

>  <numericReadout>
84

$$$$
>  <smiles>
O=C(O)c1ccc2c3c1cccc3c(=O)n1c3ccccc3nc21

>  <testedOn>
Ephrin type-A receptor 5 (Homo sapiens) (UniProt P54756)

>  <readoutLabel>
residual activity

>  <numericReadout>
102

$$$$
>  <smiles>
CN(C)c1ccc(/C=C2\C(=O)Nc3ccccc32)cc1

>  <testedOn>
Ephrin type-A receptor 5 (Homo sapiens) (UniProt P54756)

>  <readoutLabel>
residual activity

>  <numericReadout>
108

$$$$
>  <smiles>
COc1ccc(S(=O)(=O)N(CCO)c2ccccc2CN(C)C/C=C/c2ccc(Cl)cc2)cc1

>  <testedOn>
Ephrin type-A receptor 5 (Homo sapiens) (UniProt P54756)

>  <readoutLabel>
residual activity

>  <numericReadout>
124

$$$$
>  <smiles>
CN(C)CCCn1cc(C2=C(c3c[nH]c4ccccc34)C(=O)NC2=O)c2ccccc21

>  <testedOn>
Ephrin type-A receptor 5 (Homo sapiens) (UniProt P54756)

>  <readoutLabel>
residual activity

>  <numericReadout>
123

$$$$
>  <smiles>
CC(C)n1cnc2c(NCc3ccccc3)nc(NCCCO)nc21

>  <testedOn>
Ephrin type-A receptor 5 (Homo sapiens) (UniProt P54756)

>  <readoutLabel>
residual activity

>  <numericReadout>
96

$$$$
>  <smiles>
Nc1nc(Nc2ccc(S(N)(=O)=O)cc2)nn1C(=S)Nc1c(F)cccc1F

>  <testedOn>
Ephrin type-A receptor 5 (Homo sapiens) (UniProt P54756)

>  <readoutLabel>
residual activity

>  <numericReadout>
59

$$$$
>  <smiles>
O=c1c2ccccc2[nH]c(=S)n1CCN1CCC(=C(c2ccc(F)cc2)c2ccc(F)cc2)CC1

>  <testedOn>
Ephrin type-A receptor 5 (Homo sapiens) (UniProt P54756)

>  <readoutLabel>
residual activity

>  <numericReadout>
110

$$$$
>  <smiles>
Cn1cnc2cc3c(Nc4cccc(Br)c4)ncnc3cc21

>  <testedOn>
Ephrin type-A receptor 5 (Homo sapiens) (UniProt P54756)

>  <readoutLabel>
residual activity

>  <numericReadout>
82

$$$$
>  <smiles>
CCOc1cc2ncnc(Nc3cccc(Br)c3)c2cc1OCC

>  <testedOn>
Ephrin type-A receptor 5 (Homo sapiens) (UniProt P54756)

>  <readoutLabel>
residual activity

>  <numericReadout>
50

$$$$
>  <smiles>
O=c1cc(-c2cccc3c2Sc2ccccc2S3)oc(N2CCOCC2)c1

>  <testedOn>
Ephrin type-A receptor 5 (Homo sapiens) (UniProt P54756)

>  <readoutLabel>
residual activity

>  <numericReadout>
113

$$$$
>  <smiles>
COc1cc2ncnc(N3CCN(C(=O)Nc4ccc(Oc5ccccc5)cc4)CC3)c2cc1OC

>  <testedOn>
Ephrin type-A receptor 5 (Homo sapiens) (UniProt P54756)

>  <readoutLabel>
residual activity

>  <numericReadout>
117

$$$$
>  <smiles>
COc1ccc(C(=O)Nc2sc3c(c2C(N)=O)CCCC3)cc1OC

>  <testedOn>
Ephrin type-A receptor 5 (Homo sapiens) (UniProt P54756)

>  <readoutLabel>
residual activity

>  <numericReadout>
94

$$$$
>  <smiles>
COc1cc2ncnc(Nc3ccc(Oc4ccccc4)cc3)c2cc1OC

>  <testedOn>
Ephrin type-A receptor 5 (Homo sapiens) (UniProt P54756)

>  <readoutLabel>
residual activity

>  <numericReadout>
130

$$$$
>  <smiles>
Nc1cccc(-c2cc3c(Oc4cccc(O)c4)ncnc3[nH]2)c1

>  <testedOn>
Ephrin type-A receptor 5 (Homo sapiens) (UniProt P54756)

>  <readoutLabel>
residual activity

>  <numericReadout>
24

$$$$
>  <smiles>
CC[n+]1c(/C=C/N(C)c2ccccc2)n(-c2ccccc2)c2ccc(-c3nc4ccccc4s3)cc21

>  <testedOn>
Ephrin type-A receptor 5 (Homo sapiens) (UniProt P54756)

>  <readoutLabel>
residual activity

>  <numericReadout>
120

$$$$
>  <smiles>
CC(=O)O/N=C1\C(=C2\C(=O)Nc3cc(Br)ccc32)Nc2ccccc21

>  <testedOn>
Ephrin type-A receptor 5 (Homo sapiens) (UniProt P54756)

>  <readoutLabel>
residual activity

>  <numericReadout>
99

$$$$
>  <smiles>
CNc1cc2c(Nc3cccc(Br)c3)ncnc2cn1

>  <testedOn>
Ephrin type-A receptor 5 (Homo sapiens) (UniProt P54756)

>  <readoutLabel>
residual activity

>  <numericReadout>
103

$$$$

src = ChEMBL document CHEMBL2218924
